Listing of entries alongside the reported MIC.
Tested on: Staphylococcus aureus
Procedure Text: Antibacterial activity against methicillin-resistant Staphylococcus aureus clinical isolate 13 measured after 18 hrs by CLSI based broth microdilution method
Format: functional
Quantity Measured: MIC (µg/mL)

Given Smiles: CCCCN(CCCC)C(=O)C[N+](C)(C)CCCCCOc1ccc2ccc(=O)oc2c1CC=C(C)C.[Br-]
Unit String: µg/mL
Obs Value: 2

Given Smiles: CC(C)=CCc1c(OCCCCC[N+](C)(C)CC(=O)N(C(C)C)C(C)C)ccc2ccc(=O)oc12.[Br-]
Unit String: µg/mL
Obs Value: 8

Given Smiles: CC(C)=CCc1c(OCCCC[N+](C)(C)CC(=O)N(C(C)C)C(C)C)ccc2ccc(=O)oc12.[Br-]
Unit String: µg/mL
Obs Value: 32

Given Smiles: CCCCCNC(=O)C[N+](C)(C)CCCCOc1ccc2ccc(=O)oc2c1CC=C(C)C.[Br-]
Unit String: µg/mL
Obs Value: 16

Given Smiles: CCCCCNC(=O)C[N+](C)(C)CCCOc1ccc2ccc(=O)oc2c1CC=C(C)C.[Br-]
Unit String: µg/mL
Obs Value: 16

Given Smiles: CCCCCNC(=O)C[N+](C)(C)CCCCCOc1ccc2ccc(=O)oc2c1CC=C(C)C.[Br-]
Unit String: µg/mL
Obs Value: 4

Given Smiles: CC(C)=CCc1c(OCCCC[N+](C)(C)CC(=O)N(CC(C)C)CC(C)C)ccc2ccc(=O)oc12.[Br-]
Unit String: µg/mL
Obs Value: 4

Given Smiles: CCCCN(CCCC)C(=O)C[N+](C)(C)CCCOc1ccc2ccc(=O)oc2c1CC=C(C)C.[Br-]
Unit String: µg/mL
Obs Value: 4

Given Smiles: CC(C)=CCc1c(OCCCCC[N+](C)(C)CC(=O)N(CC(C)C)CC(C)C)ccc2ccc(=O)oc12.[Br-]
Unit String: µg/mL
Obs Value: 2

Given Smiles: CCCN(CCC)C(=O)C[N+](C)(C)CCCCCOc1ccc2ccc(=O)oc2c1CC=C(C)C.[Br-]
Unit String: µg/mL
Obs Value: 8

Given Smiles: CCCCNC(=O)C[N+](C)(C)CCCCCOc1ccc2ccc(=O)oc2c1CC=C(C)C.[Br-]
Unit String: µg/mL
Obs Value: 8

Given Smiles: CCN(CC)C(=O)C[N+](C)(C)CCCOc1ccc2ccc(=O)oc2c1CC=C(C)C.[Br-]
Unit String: µg/mL
Obs Value: 128

Given Smiles: CCNC(=O)C[N+](C)(C)CCCCOc1ccc2ccc(=O)oc2c1CC=C(C)C.[Br-]
Unit String: µg/mL
Obs Value: 128

Given Smiles: CCCNC(=O)C[N+](C)(C)CCCOc1ccc2ccc(=O)oc2c1CC=C(C)C.[Br-]
Unit String: µg/mL
Obs Value: 128

Given Smiles: CC(C)=CCc1c(OCCC[N+](C)(C)CC(=O)N(C(C)C)C(C)C)ccc2ccc(=O)oc12.[Br-]
Unit String: µg/mL
Obs Value: 16

Given Smiles: CCCCNC(=O)C[N+](C)(C)CCCOc1ccc2ccc(=O)oc2c1CC=C(C)C.[Br-]
Unit String: µg/mL
Obs Value: 32

Given Smiles: CCCNC(=O)C[N+](C)(C)CCCCOc1ccc2ccc(=O)oc2c1CC=C(C)C.[Br-]
Unit String: µg/mL
Obs Value: 64
